- Test system: CAKI-1
- Test: minimum viability across doses, drug + dasatinib, relative to DMSO (fraction); higher = less growth inhibition
- Condition Context: treatment: drug + dasatinib (fixed dose, not stated); 5 days
Observation Type: minimum viability across doses
Respond using a number only.

Request: Endpoint output: minimum viability across doses of CS(=O)(=O)N1CCN(Cc2cc3nc(-c4cccc5[nH]ncc45)nc(N4CCOCC4)c3s2)CC1 [GDC-0941] + Cc1nc(Nc2ncc(C(=O)Nc3c(C)cccc3Cl)s2)cc(N2CCN(CCO)CC2)n1 . Value?
Result: 0.0678

Request: State the recorded minimum viability across doses for this entry: CN(C)Cc1cccc(N/C(=C2\C(=O)Nc3cc(C(=O)N(C)C)ccc32)c2ccccc2)c1 + Cc1nc(Nc2ncc(C(=O)Nc3c(C)cccc3Cl)s2)cc(N2CCN(CCO)CC2)n1
Result: 0.0645

Request: Would you kindly share the measured minimum viability across doses for CNC(=O)c1ccc(C)c(-n2c(C)cc(OCc3ccc(F)cc3F)c(Br)c2=O)c1 + Cc1nc(Nc2ncc(C(=O)Nc3c(C)cccc3Cl)s2)cc(N2CCN(CCO)CC2)n1 ?
Result: 0.561

Request: Need minimum viability across doses of O=C(NOC[C@H](O)CO)c1ccc(F)c(F)c1Nc1ccc(I)cc1F + Cc1nc(Nc2ncc(C(=O)Nc3c(C)cccc3Cl)s2)cc(N2CCN(CCO)CC2)n1 , thanks.
Result: 0.0721

Request: // lookup minimum viability across doses for N#CC[C@H](C1CCCC1)n1cc(-c2ncnc3[nH]ccc23)cn1 + Cc1nc(Nc2ncc(C(=O)Nc3c(C)cccc3Cl)s2)cc(N2CCN(CCO)CC2)n1
Result: 0.331

Just for reference, the supplement of paper PMC8149375 is where these values come from.
